- Study Target: human α7 nAChRs (Homo sapiens)
- Construct: expressed in transfected cells; host or cells: Xenopus laevis oocytes (cRNA injection)
- Sequence (P36544 23-502): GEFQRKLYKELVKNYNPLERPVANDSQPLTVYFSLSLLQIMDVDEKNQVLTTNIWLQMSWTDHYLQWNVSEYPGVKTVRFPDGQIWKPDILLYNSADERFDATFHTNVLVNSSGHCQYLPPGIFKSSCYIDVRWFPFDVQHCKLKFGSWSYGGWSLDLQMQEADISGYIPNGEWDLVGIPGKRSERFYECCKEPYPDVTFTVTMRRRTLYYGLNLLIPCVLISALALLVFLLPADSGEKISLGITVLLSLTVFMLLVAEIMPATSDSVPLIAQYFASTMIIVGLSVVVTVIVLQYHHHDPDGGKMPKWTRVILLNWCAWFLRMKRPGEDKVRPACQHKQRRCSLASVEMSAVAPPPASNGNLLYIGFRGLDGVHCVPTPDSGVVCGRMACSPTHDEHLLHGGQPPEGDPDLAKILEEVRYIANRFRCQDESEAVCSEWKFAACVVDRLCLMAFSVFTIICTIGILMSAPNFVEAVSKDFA
- Protocol: Two-electrode voltage-clamp recording, wild-type human α7 nAChRs expressed in Xenopus oocytes
- Type: cell-based
- Measurement Context: Human α7; maximum fold potentiation of responses to an EC50 of acetylcholine (100 μM); mean ± SEM
Below: a set of entries, each annotated with reported Fold potentiation.
Experimental Readout: Fold potentiation (fold)

compound="NS(=O)(=O)c1ccc(-n2nc(-c3ccc(Br)cc3)nc2-c2ccccc2)cc1 [TBS-345]" experimental_readout="Fold potentiation" observed_result=8.8
compound="COc1ccc(-c2nc(-c3ccc(Br)cc3)nn2-c2ccc(S(N)(=O)=O)cc2)cc1 [TBS-346]" experimental_readout="Fold potentiation" observed_result=10.5
compound="CCCc1nc(-c2ccc(Br)cc2)nn1-c1ccc(S(N)(=O)=O)cc1 [TBS-546]" experimental_readout="Fold potentiation" observed_result=4.7
compound="NS(=O)(=O)c1ccc(-n2nc(-c3ccc(Br)cc3)nc2Cc2ccccc2)cc1 [TBS-516]" experimental_readout="Fold potentiation" observed_result=11.3
